FYI, the data here is from patent US20260042764A1.

Target: Avi-KRAS G12C (2-169) GTP/RAF1 RBD-3xFLAG (51-131) (Homo sapiens, UniProt P01116, G12C)
Construct: Avi-KRAS G12C (2-169)
Sequence (P01116 2-169 isoform P01116-2 G12C): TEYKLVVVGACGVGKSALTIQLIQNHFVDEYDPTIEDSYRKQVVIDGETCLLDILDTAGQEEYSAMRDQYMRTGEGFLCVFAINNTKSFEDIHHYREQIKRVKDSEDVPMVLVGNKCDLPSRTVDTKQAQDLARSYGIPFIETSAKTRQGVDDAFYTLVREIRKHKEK
Assay: Raf1-KRAS G12C-GTP disruption HTRF assay (Biological Example 3)
Assay type: binding
Conditions: KRAS G12C, GTP-loaded
pIC50: −log10 of the molar value.
Measurement label: pIC50

Check out these entries, answers already filled in.
Compound	pIC50
CN(c1nc(OC[C@@]23CCCN2C[C@H](F)C3)nc2c(F)c(-c3ccc(F)c4sc(N)c(C#N)c34)c(C(F)(F)F)cc12)[C@H]1CC(=O)N2CCC[C@@H]12 (atropisomer, axis not shown)	6.00 to 7.00
CCN(c1nc(OC[C@@]23CCCN2C[C@H](F)C3)nc2c(F)c(-c3ccc(F)c4sc(N)c(C#N)c34)c(C(F)(F)F)cc12)[C@H]1CCN(C(=O)c2cocn2)[C@@H]1C (atropisomer, axis not shown)	6.00 to 7.00
CCN(c1nc(OC[C@@]23CCCN2C[C@H](F)C3)nc2c(F)c(-c3ccc(F)c4sc(N)c(C#N)c34)c(C(F)(F)F)cc12)[C@H]1C[C@@H]2COC(=O)N2C1 (atropisomer, axis not shown)	6.00 to 7.00

# input Which value of pIC50 has been reported for CCN(c1nc(OC[C@@]23CCCN2C[C@H](F)C3)nc2c(F)c(-c3ccc(F)c4sc(N)c(C#N)c34)c(C(F)(F)F)cc12)[C@H]1CCN(C(=O)N2CC(F)(F)C2)C1 (atropisomer, axis not shown) in the records?
# output 6.00 to 7.00

# input Please do the same for CCN(c1nc(OC[C@@]23CCCN2C[C@H](F)C3)nc2c(F)c(-c3ccc(F)c4sc(N)c(C#N)c34)c(C(F)(F)F)cc12)[C@H]1C[C@@H](C(=O)N(C)C)C1 (atropisomer, axis not shown) as well.
# output 5.00 to 6.00

# input Please do the same for CCN(c1nc(OC[C@@]23CCCN2C[C@H](F)C3)nc2c(F)c(-c3ccc(F)c4sc(N)c(C#N)c34)c(C(F)(F)F)cc12)[C@H]1C=C[C@@H](C(=O)N(C)C)C1 (atropisomer, axis not shown) as well.
# output < 5.00

----------
Measured pIC50 of individual entries
Biological target: Avi-KRAS G12R (1-169) GppNHp/RAF1 RBD-3xFLAG (52-151) (Homo sapiens, UniProt P01116, G12R)
Construct: Avi-KRAS G12R (1-169)
Sequence (P01116 1-169 isoform P01116-2 G12R): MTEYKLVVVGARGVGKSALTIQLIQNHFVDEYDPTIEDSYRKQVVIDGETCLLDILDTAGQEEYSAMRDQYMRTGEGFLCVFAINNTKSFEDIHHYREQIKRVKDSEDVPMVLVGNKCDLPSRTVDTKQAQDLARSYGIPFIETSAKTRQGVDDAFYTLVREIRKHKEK
Experiment: Raf1-KRAS G12R-GppNHP disruption HTRF assay (Biological Example 1)
Format: binding
Settings: KRAS G12R, GppNHp-loaded; Table 11
pIC50: −log10 of the molar value.

Check out these entries, answers already filled in.
>>> print(df.to_string())
                            chemical_string        result
0  C[C@H]1[C@@H](N(C)c2nc(OC[C@@]34CCCN3C[C@H](F)C4)nc3c(F)c(-c4ccc(F)c5sc(N)c(C#N)c45)c(C(F)(F)F)cc23)CCN1C(=O)CC#N  5.00 to 6.00
1  CC(=O)N1CCN(c2nc(OC[C@@]34CCCN3C[C@H](F)C4)nc3c(F)c(-c4ccc(F)c5sc(N)c(C#N)c45)c(C(F)(F)F)cc23)CC1  6.00 to 7.00

Kindly review the next molecule as well.
# input Which value of pIC50 has been reported for N#Cc1c(N)sc2c(F)ccc(-c3c(C(F)(F)F)cc4c(N5C6CCC5COC6)nc(OC[C@@]56CCCN5C[C@H](F)C6)nc4c3F)c12 in the records?
# output 6.00 to 7.00
